- System: MOLT-4
- measurementProtocol: NCI tumour cell line growth inhibition, 48 h
Active and inactive are the calls of the source. Rule as the data show it: active = GI50 up to about 1.1 µM and inactive = higher.
Outcomes: active, inactive

INSERT INTO assay_data (compound, classification) VALUES
  ('CC(C)Oc1c(O)c2c3c(oc(=O)n3C=CC2c2ccccc2F)c1OC(C)C (stereo not drawn)', 'inactive'),
  ('N#Cc1c(N)[nH]c(=S)c(C#N)c1-c1cccc(Cl)c1', 'inactive'),
  ('CCOC(=O)n1ccc2c(C(=O)OC)c(C(=O)OC)cc(/C(=C/C(=O)OC)C(=O)OC)c21', 'inactive'),
  ('Cn1c(=S)c2nc(SCCN3C(=O)c4ccccc4C3=O)[nH]c2n(C)c1=O', 'inactive'),
  ('COc1cc(C2c3cc4c(cc3[C@@H](Nc3ccc(F)cc3)C3COC(=O)[C@H]23)OCO4)cc(OC)c1O (stereo partly drawn)', 'active'),
  ('Cn1c(=O)oc2cc(C3CCC(=O)N3Cc3ccc(Cl)cc3)ccc21 (stereo not drawn)', 'inactive'),
  ('C[N+](C)(C)CC(=O)N/N=C(/Cc1nc2c3c(ccc2nc1O)C(=O)c1ccccc1C3=O)C(=O)Nc1ccc(Cl)c(Cl)c1', 'inactive'),
  ('CSC(=N/C=C/c1ccccc1)SC', 'inactive'),
  ('COc1ccc(C23OCC(Cc4cc(OC)c(OC)cc42)C3CO)cc1OC (stereo not drawn)', 'inactive'),
  ('CC(C)(c1ccccc1)c1ccc(Oc2ccc(C#N)c(C#N)c2)cc1', 'inactive'),
  ('O=C(NN=C(c1ccccc1)c1ccccc1)/C(O)=C/C(=O)c1ccc(Cl)cc1', 'inactive'),
  ('COc1ccc(-c2c(C(C)=O)c(C)n(C3OC(CO)C(O)C(O)C3O)c(=S)c2C#N)cc1 (stereo not drawn)', 'inactive'),
  ('COC(=O)c1ccccc1C1CN=NC12Cc1c(C)c3c(c(C)c1C2=O)CCC3 (stereo not drawn)', 'inactive'),
  ('N/C(=N/O)c1cn(C2OC(CO)C(O)C2O)c2ncnc(NO)c12 (stereo not drawn)', 'active'),
  ('Cc1cc(C)nc(NS(=O)(=O)c2ccc(Nc3c4ccc(Cl)cc4nc4c(C(=O)Nc5ccc(S(=O)(=O)N=C(N)N)cc5)cccc34)cc2)n1', 'inactive'),
  ('O=C(O)CSC1=NCCN1', 'inactive'),
  ('COc1cc2c(c(OC)c1)/C(=C/Sc1ccccc1)C(=O)N(C(C)(C)C)C2', 'inactive'),
  ('Cc1cc(C)nc(NS(=O)(=O)c2ccc(NC(=O)c3cccc4c(Nc5ccc(S(=O)(=O)Nc6nc(C)cc(C)n6)cc5)c5ccc(Cl)cc5nc34)cc2)n1', 'inactive'),
  ('COC(=O)CC(=O)OSc1ccccc1', 'inactive'),
  ('COc1ccc2nc3cc(Cl)ccc3c(Sc3ccc([N+](=O)[O-])cc3)c2c1', 'inactive'),
  ('C=CCc1cc(OC)c2c(c1)C(O)CC(c1ccccc1)O2 (stereo not drawn)', 'inactive'),
  ('Cc1ccc(NC(=O)CCc2nnc3s/c(=C\C=C\c4ccccc4)c(=O)n23)cc1', 'inactive'),
  ('O=C1Oc2cc(O)cc(/C=C/c3ccc(O)cc3)c2[C@@]12c1c(O)cc(O)cc1OC2c1cccc(O)c1 (stereo partly drawn)', 'inactive');

These entries and their values trace back to ChEMBL document CHEMBL1201862.
